Tested on: Resistant Staphylococcus aureus 1775
assay: In vitro antibacterial activity, agar dilution MIC
Format: cell-based
experimental parameters: BHI agar dilution, 35-37° C., 20 to 24 hours
measured property: MIC S. aureus 1775 (µg/mL)
Give just the number in µg/mL; leave the unit off.

compound	result
CCON=C1C(C)CC(C)(OCC=Cc2cnc3ccccc3c2)C(OC2OC(C)CC(N(C)C)C2O)C(C)C(=O)C(C)C(=O)OC(CC)C(C)(O)C(O)C1C (stereo not shown) [Ex. 1]	12.5

Query: Tell me measured MIC S. aureus 1775 for CCC1OC(=O)C(C)C(OC2CC(C)(OC)C(O)C(C)O2)C(C)C(OC2OC(C)CC(N(C)C)C2O)C(C)(OCc2ccc(-c3ccccc3)cc2)CC(C)C(=NO)C(C)C(O)C1(C)O (stereo not shown) [Ex. 13] please.
Result: 25

Query: For the compound CCC1OC(=O)C(C)C(OC2CC(C)(OC)C(O)C(C)O2)C(C)C(OC2OC(C)CC(N(C)C)C2O)C(C)(OCc2cccc(I)c2)CC(C)C(=NO)C(C)C(O)C1(C)O (stereo not shown) [Ex. 12] , give its reported MIC S. aureus 1775.
Result: 25
